Where do these numbers come from? They come from paper PMC8227856.

- experiment_summary: Pharmacokinetic study in mice, plasma LC-MS/MS
- Format: in vivo
- applied_conditions: female, mouse, plasma, iv, 10 mg/kg i.v., non-compartmental
measured_metric: Tmax (min)
One number for each entry, in min.

Lookup: Any idea what its Tmax is? The molecule is C=C[C@]1(C)C[C@@H](OC(=O)CN2CCN(C(=O)CN3CCN(c4ccc([N+](=O)[O-])cc4)CC3)CC2)[C@]2(C)[C@H](C)CC[C@]3(CCC(=O)[C@H]32)[C@@H](C)[C@@H]1O
Found: 4.98

====

- experiment_summary: Pharmacokinetic study in mice, plasma LC-MS/MS
- Type: in vivo
- applied_conditions: female, mouse, plasma, 10 mg/kg, single intravenous administration
measured_metric: clearance
Answer format reminder: number followed by unit.

Lookup: // returns reported clearance for input C=C[C@]1(C)C[C@@H](OC(=O)CN2CCN(C(=O)CN3CCN(c4ccc([N+](=O)[O-])cc4)CC3)CC2)[C@]2(C)[C@H](C)CC[C@]3(CCC(=O)[C@H]32)[C@@H](C)[C@@H]1O
Found: 46 mL/min/kg
